experimentalTarget: recombinant rat sEH (Rattus norvegicus, UniProt P80299)
Sequence (P80299 1-554): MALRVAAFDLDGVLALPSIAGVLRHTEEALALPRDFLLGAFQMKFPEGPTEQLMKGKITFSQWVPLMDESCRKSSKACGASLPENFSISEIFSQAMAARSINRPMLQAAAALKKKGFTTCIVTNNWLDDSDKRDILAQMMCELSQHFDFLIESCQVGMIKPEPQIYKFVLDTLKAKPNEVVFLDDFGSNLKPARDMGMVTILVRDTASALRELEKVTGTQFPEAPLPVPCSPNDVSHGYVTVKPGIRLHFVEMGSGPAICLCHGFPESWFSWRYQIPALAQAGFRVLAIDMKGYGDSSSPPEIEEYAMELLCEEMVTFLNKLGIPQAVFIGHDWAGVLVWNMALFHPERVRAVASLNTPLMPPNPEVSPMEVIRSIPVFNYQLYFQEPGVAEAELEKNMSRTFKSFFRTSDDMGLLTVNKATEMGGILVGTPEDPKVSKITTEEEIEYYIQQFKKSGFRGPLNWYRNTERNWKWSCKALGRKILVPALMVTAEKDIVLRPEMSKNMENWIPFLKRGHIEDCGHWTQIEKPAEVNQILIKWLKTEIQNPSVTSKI
assayMethodText: sEH inhibition by fluorescent assay (CMNPC assay), rat
testSettings: recombinant rat sEH 0.96 nM, [S] = 5 μM, mean ± SD of three measurements
Recorded pIC50 for the following compounds
API: returns pIC50 as number; meaning -log10 of concentration in mol/L.

           structuresmilesstring  valuetype  testvalue
0      O=C(NCc1ccccc1)NCc1ccccc1      pIC50       7.00
1  COc1ccc(CNC(=O)NCc2ccccc2)cc1      pIC50       7.36

Moving on to another compound below.
Query string: Name the reported pIC50 value associated with the compound COc1ccc(CNC(=O)NCc2ccc(OC)cc2)cc1
Result string: 7.46
